# tested_target: T1, AAV9 (adeno-associated virus 9, Assembled 60-mer capsid of VP1/VP2/VP3 (nested products of one cap gene), amine-coupled to a CM5 chip; the letters give one VP1 subunit only.)
# T1 construct: also called adeno-associated virus serotype 9
# assay_method_text: SPR, AAV amine-coupled to CM5 chip
measured_metric: koff (s⁻¹)
Give bare numbers, in s⁻¹.

binder | koff [s⁻¹]
A4-C9 (bispecific antibody) VQLQESGGGLVQPGGSLRLSCAASGSNFSINTMGWYRQAPGKQRELVATVTRGGDTNYADSVKGRFTISRDNAKNTVYLQMNSLRPEDTAVYYCHVDEIRESSWTTSNLWGQGTQVTVSSGGGGSGGGGSGGGGSVQLQESGGGLVQPGGSLRLSCAASGSNFSINTMGWYRQAPGKQRELVAALTRGGSTNYADSVKGRFTISRDNAKNTVYLQMNSLRPEDTAVYYCHVDEVRESSWTTSNLWGQGTQVTVSSGGGGSGGGGSGGGGSVQLQESGGGLVQPGGSLRLSCAASGSNFRINTMGWYRQAPGKQRELVAPVTRGGSTNYADSVKGRFTISRDNAKNTVYLQMNSLRPEDTAVYYCHVDEVRESSWTTSNLWGQGTQVTVSS | 0.00013
A4-C8 (bispecific antibody) VQLQESGGGLVQPGGSLRLSCAASGSNFRINTMGWYRQAPGKQRELVAPVTRGGSTNYADSVKGRFTISRDNAKNTVYLQMNSLRPEDTAVYYCHVDEVRESSWTTSNLWGQGTQVTVSSGGGGSGGGGSGGGGSVQLQESGGGLVQPGGSLRLSCAASGSNFSINTMGWYRQAPGKQRELVATVTRGGDTNYADSVKGRFTISRDNAKNTVYLQMNSLRPEDTAVYYCHVDEIRESSWTTSNLWGQGTQVTVSSGGGGSGGGGSGGGGSVQLQESGGGLVQPGGSLRLSCAASGSNFSINTMGWYRQAPGKQRELVAALTRGGSTNYADSVKGRFTISRDNAKNTVYLQMNSLRPEDTAVYYCHVDEVRESSWTTSNLWGQGTQVTVSS | 5e-05
A4-C5 (bispecific antibody) VQLQESGGGLVQPGGSLRLSCAASGSNFRINTMGWYRQAPGKQRELVATVTRGGSTNYADSVKGRFTISRDNPKNTVYLQMNSLRPEDTAVYYCHVDEVRESSWTTSNLWGQGTQVTVSSGGGGSGGGGSGGGGSVQLQESGGGLVQPGGSLRLSCAASGSNFSINTMGWYRQAPGKQRELVATVTRGGDTNYADSVKGRFTISRDNAKNTVYLQMNSLRPEDTAVYYCHVDEIRESSWTTSNLWGQGTQVTVSSGGGGSGGGGSGGGGSVQLQESGGGLVQPGGSLRLSCAASGSNFRINTMGWYRQAPGKQRELVATVTRGGSTNYADSVKGRFTISRDNPKNTVYLQMNSLRPEDTAVYYCHVDEVRESSWTTSNLWGQGTQVTVSS | 0.0002

Form: binder = A4-C2 (VHH) VQLQESGGGLVQPGGSLRLSCAASGSAFSINTMGWYRQAPGKQRELVASVTPGGSTNYADSVKGRFTISRDNAKNTIYLQMNSLRPEDTAVYYCHLDEVRESSWTTSNLWGQGTQVTVSSGGGGSGGGGSGGGGSVQLQESGGGLVQPGGSLRLSCAASGSAFSINTMGWYRQAPGKQRELVASVTPGGSTNYADSVKGRFTISRDNAKNTIYLQMNSLRPEDTAVYYCHLDEVRESSWTTSNLWGQGTQVTVSSGGGGSGGGGSGGGGSVQLQESGGGLVQPGGSLRLSCAASGSAFSINTMGWYRQAPGKQRELVASVTPGGSTNYADSVKGRFTISRDNAKNTIYLQMNSLRPEDTAVYYCHLDEVRESSWTTSNLWGQGTQVTVSS ; koff = 0.000125
